Target: T1, HCV Core1-169 (HCV-1, UniProt P26664 1-169)
T1 construct: also called recombinant HCV core antigen
T1 sequence: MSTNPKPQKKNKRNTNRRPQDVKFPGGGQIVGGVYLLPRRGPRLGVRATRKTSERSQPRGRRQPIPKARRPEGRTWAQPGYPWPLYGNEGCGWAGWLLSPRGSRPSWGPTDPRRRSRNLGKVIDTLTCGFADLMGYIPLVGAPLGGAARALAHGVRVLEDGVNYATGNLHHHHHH
Test: EIA, core1-169 captured by mAb 14-153-229; further: test concentration or dose not given here
PROPERTY_MEASURED: OD (A492) (OD)
Numeric answer only, unit OD assumed.

BINDER	ENDPOINT_UNIT	OD (A492)
HCV 208B-547 (antibody, V domains shown) VH: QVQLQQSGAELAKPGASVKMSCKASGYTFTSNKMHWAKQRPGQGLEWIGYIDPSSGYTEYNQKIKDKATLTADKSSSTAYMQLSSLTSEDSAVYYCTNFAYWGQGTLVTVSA VL: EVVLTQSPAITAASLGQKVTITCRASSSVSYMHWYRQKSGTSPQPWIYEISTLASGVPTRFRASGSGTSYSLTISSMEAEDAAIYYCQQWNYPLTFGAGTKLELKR	OD	1.62

Could you now consider this next binder?
For HCV 208B-251 (antibody, V domains shown) VH: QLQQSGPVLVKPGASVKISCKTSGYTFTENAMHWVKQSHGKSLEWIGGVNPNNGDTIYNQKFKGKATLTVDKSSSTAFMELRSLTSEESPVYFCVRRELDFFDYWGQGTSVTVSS VL: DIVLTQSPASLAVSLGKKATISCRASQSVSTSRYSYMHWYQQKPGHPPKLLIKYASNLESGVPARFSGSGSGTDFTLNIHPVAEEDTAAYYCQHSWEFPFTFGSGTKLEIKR , what is its reported OD (A492)? 1.39
